Target: Peptide 1: Biotin-…-[Tyr(PC)]-acid
Sequence (peptide, as listed by the source): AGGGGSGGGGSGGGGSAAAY
Assay: scFv ELISA
readout_type: OD450 (OD450)
The reply should be a number in OD450, with the unit left off.

PcOxP_DB03_D03 (scFv, V domains shown, scFv in periplasmic extract) VH: EVQLLESGGGLVQPGGSLRLSCAASGFTFSDYYMEWVRQAPGKGLEWVAASRNKANDYTTEYADSVKGRFTISRDNSKNTLYLQMNSLRAEDTAVYYCARDYYFSSYWYFDVWGQGTLVTVSS VL: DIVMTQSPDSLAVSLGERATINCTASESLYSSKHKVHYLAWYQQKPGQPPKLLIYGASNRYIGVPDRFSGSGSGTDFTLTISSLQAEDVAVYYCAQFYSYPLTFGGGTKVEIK
0.73

Now consider a different binder.
Name the recorded OD450 for PcOxP_DB03_G09 (scFv, V domains shown, scFv in periplasmic extract) VH: EVQLLESGGGLVQPGGSLRLSCAASGFSFSDFYMEWVRQAPGKGLEWVAASRNKWNDYTTEYADSVKGRFTISRDNSKNTLYLQMNSLRAEDTAVYYCARDYYGSSYWYFDVWGQGTLVTVSS VL: DIVMTQSPDSLAVSLGERATINCTASESLYSSKHKVHYLAWYQQKPGQPPKLLIYGASNRYIGVPDRFSGSGSGTDFTLTISSLQAEDVAVYYCASFYSYPLTFGGGTKVEIK .
0.74
